Data origin, for the record: patent US7053177B1

# Assay target: bovine serum albumin (bovine) (UniProt P02769)
# Sequence (P02769 25-607 limits assumed): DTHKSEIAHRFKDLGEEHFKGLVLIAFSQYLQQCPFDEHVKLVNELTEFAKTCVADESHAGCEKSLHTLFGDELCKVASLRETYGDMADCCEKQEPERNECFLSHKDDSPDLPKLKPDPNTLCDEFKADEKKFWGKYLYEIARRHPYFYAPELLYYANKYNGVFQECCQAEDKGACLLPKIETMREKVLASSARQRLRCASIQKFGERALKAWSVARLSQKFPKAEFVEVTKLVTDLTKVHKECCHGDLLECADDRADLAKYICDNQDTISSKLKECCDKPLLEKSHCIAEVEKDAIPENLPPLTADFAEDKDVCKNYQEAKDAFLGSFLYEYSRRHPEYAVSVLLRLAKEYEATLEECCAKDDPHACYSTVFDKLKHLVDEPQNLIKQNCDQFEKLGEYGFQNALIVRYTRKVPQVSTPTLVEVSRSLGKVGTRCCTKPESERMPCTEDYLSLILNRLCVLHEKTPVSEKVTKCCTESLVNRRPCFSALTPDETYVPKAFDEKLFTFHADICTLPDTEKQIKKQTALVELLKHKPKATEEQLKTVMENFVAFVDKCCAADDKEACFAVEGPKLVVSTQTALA
# Assay notes: phage ELISA on coated BSA
Ends that are not written are not given here.
Measure name: OD (OD 650 nm)
Numbers only; they are read as OD 650 nm.

Worked examples follow.
>>> obs_value("SPCGGSWGRFMQGGLFGGRTDGCGAHRNRTSASLEPPSSDY [phage SNi34]")
0.115
>>> obs_value("RTFENDGLGVGRSIQKKSDRWYASHNIRSHFASMSPAGK (peptide, not shown: large carriers) [phage PAX14]")
0.139
>>> obs_value("RWPSVGYKGNGSDTIDVHSNDASTKRSLIYNHRRPLFP (peptide, not shown: large carriers) [phage PAX9]")
0.079
>>> obs_value("RWCEKHKFTAARCSAGAGFERDASRPPQPAHRDNTNRNA (peptide, not shown: large carriers, cysteine pairing not given here; also: displayed as N-terminal pIII fusion on M13 phage) [phage PAX43]")
0.069
>>> obs_value("SARDSGPAEDGSRAVRLNGVENANTRKSSRSNPRGRRHP (also: displayed as N-terminal pIII fusion on M13 phage, M13 phage displaying this insert as N-terminal pIII fusion; whole phage in the ELISA; not shown: M13 pIII coat protein and phage particle (display carrier)) [phage P31]")
0.075
>>> obs_value("SVGNDKTSRPVSFYGRVSDLWNASLMPKRTPSSKRHDDG [phage DCX45]")
0.075
>>> obs_value("RSSANNCEWKSDWMRRACIARYANSSGPARAVDTKAAP [phage DAB18]")
0.085
>>> obs_value("RWCGAELCNSVTKKFRPGWRDHANPSTHHRTPPPSQSSP [phage DAB3]")
0.072
>>> obs_value("RHISEYSFANSHLMGGESKRKGCGINGSFSPTCPRSPTPAFRRT (cysteine pairing not given here; also: displayed as N-terminal pIII fusion on M13 phage, M13 phage displaying this insert as N-terminal pIII fusion; whole phage in the ELISA; not shown: M13 pIII display protein and the vector-encoded flanking residues) [phage HCA3]")
0.038
>>> obs_value("RMEDIKNSGWRDSCRWGDLRPGCGSRQWYPSNMRSSRDYPAGGH [phage DAX24]")
0.118

As a next step, examine the binder that follows.
Challenge: Quick check: OD of SHSGGMNRAYGDVFRELRDRWNATSHHTRPTPQLPRGPN [phage SNi28] ?
Response given: 0.113
